assay: Rat pharmacokinetic assay; assay type: in vivo; settings: male, Sprague-Dawley, plasma, iv 1 mg/kg
assay.metric: half-life (h)
Your answer should be a plain number; it is taken to be in h.

What measured half-life goes with CC#CC(=O)N1CCCC[C@H]1c1nc(-c2ccc(C(=O)Nc3cc(C(F)(F)F)ccn3)cc2)c(C(N)=O)n1N [Example 85] ?
1.97

###

target: BTK (Homo sapiens (Human), UniProt Q06187); assay: BTK inhibition assay by Reaction Biology Corporation (33P-ATP, filter-binding); format: biochemical; settings: footnote a: from Reaction Biology Corporation
Sequence (Q06187 whole entry): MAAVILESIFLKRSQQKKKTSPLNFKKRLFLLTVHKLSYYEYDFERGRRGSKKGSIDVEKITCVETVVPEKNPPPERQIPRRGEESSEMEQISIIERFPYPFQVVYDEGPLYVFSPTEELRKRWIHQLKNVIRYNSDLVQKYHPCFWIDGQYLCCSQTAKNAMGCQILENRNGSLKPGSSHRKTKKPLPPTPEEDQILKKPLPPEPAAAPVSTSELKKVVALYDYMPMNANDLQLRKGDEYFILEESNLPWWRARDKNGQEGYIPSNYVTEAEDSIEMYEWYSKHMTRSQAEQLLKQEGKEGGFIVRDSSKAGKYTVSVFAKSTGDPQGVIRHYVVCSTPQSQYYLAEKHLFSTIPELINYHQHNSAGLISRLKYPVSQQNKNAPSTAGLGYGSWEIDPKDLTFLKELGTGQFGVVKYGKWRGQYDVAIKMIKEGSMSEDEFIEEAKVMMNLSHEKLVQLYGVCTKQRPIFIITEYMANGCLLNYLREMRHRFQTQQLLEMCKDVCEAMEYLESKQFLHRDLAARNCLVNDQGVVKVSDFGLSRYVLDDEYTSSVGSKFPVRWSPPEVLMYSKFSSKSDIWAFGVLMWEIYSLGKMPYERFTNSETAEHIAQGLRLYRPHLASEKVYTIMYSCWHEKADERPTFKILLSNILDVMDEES
pIC50: −log10 of the molar value.
Use 8 as the dividing line for pIC50, with the line itself on the Fulfilled side and lower values as Not fulfilled.

For this compound, is measured pIC50 8 or higher? C#CC(=O)N1CCC[C@H]1c1nc(-c2ccc(C(=O)Nc3cc(C)ccn3)cc2)c(C(N)=O)n1N
Not fulfilled

API: above_or_equal(metric=pIC50, cutoff=8) for item C=CC(=O)N1CCC[C@H]1c1nc(-c2ccc(C(=O)Nc3ccccn3)cc2)c(C(N)=O)n1N
Not fulfilled

Given the entry CC#CC(=O)N1CCC[C@H]1c1nc(-c2ccc(C(=O)Nc3cc(C)ccn3)cc2)c(C(N)=O)n1N , answer whether its pIC50 meets or surpasses 8.
Not fulfilled

Quick check, pIC50 >= 8? C#CC(=O)N1CCC[C@H]1c1nc(-c2ccc(C(=O)Nc3ccccn3)cc2)c(C(N)=O)n1N
Not fulfilled

Exam item: decide whether the reported pIC50 for C=CC(=O)N1CCCC[C@H]1c1nc(-c2ccc(C(=O)Nc3cc(-c4ccc(F)cc4)ccn3)cc2)c(C(N)=O)n1N is at least 8.
Fulfilled

Could you tell me if the measured pIC50 of C=CC(=O)N1CCCC[C@H]1c1nc(-c2ccc(C(=O)Nc3cc(Br)ccn3)cc2)c(C(N)=O)n1N reaches 8 or more?
Fulfilled

Given CCc1ccnc(NC(=O)c2ccc(-c3nc([C@@H]4CCCN4C(=O)C=C(C)C)n(N)c3C(N)=O)cc2)c1 , state whether its pIC50 is at least 8.
Not fulfilled

Is pIC50 at least 8? Consider C=CC(=O)N1CCCC[C@H]1c1nc(-c2ccc(C(=O)Nc3nccs3)cc2)c(C(N)=O)n1N
Not fulfilled

Given C=CC(=O)N1CCCC[C@H]1c1nc(-c2ccc(C(=O)Nc3cc(C(C)C)ccn3)cc2)c(C(N)=O)n1N , state whether its pIC50 is at least 8.
Not fulfilled

Confirm if pIC50 reported for the compound N#CN1CCC[C@H]1c1nc(-c2ccc(C(=O)Nc3ccccn3)cc2)c(C(N)=O)n1N is 8 or above.
Not fulfilled
